assayed.system: human GLP-1 receptor (human, UniProt P43220 24-463)
method.description: cell-based or functional assay
*1 amine or outer side, *2 acyl side, *3 side chain or, on linkers, in order; H or OH if unused. Where no end group is shown, it is not given here. Side-chain parts run from the residue outwards. [ ]: non-standard residue; d: D form. The star is where a group is joined. Decanoyl(10-(4-HOOC-PhO)) = O=C(O)c1ccc(OCCCCCCCCCC(=O)*)cc1; αMePhe(2-F) = C[C@](N)(Cc1ccccc1F)C(=O)O; γGlu = O=C(O)[C@H](CCC(=O)[*:2])N[*:1]; αMeY = C[C@](N)(Cc1ccc(O)cc1)C(=O)O; αMeL = CC(C)C[C@](C)(N)C(=O)O; Orn = NCCC[C@H](N)C(=O)O; AEEA = NCCOCCOCC(=O)O; Aib = CC(C)(N)C(=O)O
Output 1.0 for records whose cAMP EC50 (1.0% HSA) is lower than 30 nM, 0.0 for records at or above 30 nM.

# binder, discrete.label
data = [
    ("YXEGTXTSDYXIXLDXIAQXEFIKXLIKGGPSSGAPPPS (Y-Aib-EGT-αMeF(2F)-TSDY-αMeS-I-αMeL-LD-Orn-IAQ-Aib-EFIK((2-[2-(2-Amino-ethoxy)-ethoxy]-acetyl)2-(γ-Glu)-(10-(4-carboxyphenoxy)decanoyl))-αMeY-LIK((2-[2-(2-Amino-ethoxy)-ethoxy]-acetyl)2-(γ-Glu)-(10-(4-carboxyphenoxy)decanoyl))GGPSSGAPPPS-NH2) [Example 307]", 0.0),
]

Asked: Is 30 nM strictly greater than the binder's reported cAMP EC50 (1.0% HSA)? binder: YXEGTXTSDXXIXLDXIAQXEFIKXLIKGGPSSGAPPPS (Y-Aib-EGT-αMeF(2F)-TSD-4Pal-Aib-I-αMeL-LD-Orn-IAQ-Aib-EFIK((2-[2-(2-Amino-ethoxy)-ethoxy]-acetyl)2-(γ-Glu)-(10-(4-carboxyphenoxy)decanoyl))-αMeY-LIK((2-[2-(2-Amino-ethoxy)-ethoxy]-acetyl)2-(γ-Glu)-(10-(4-carboxyphenoxy)decanoyl))GGPSSGAPPPS-NH2) [Example 246]
Given back: 1.0

Asked: Please indicate whether the reported cAMP EC50 (1.0% HSA) of Y[Aib]EGT[αMePhe(2-F)]TSDV[Aib]I[αMeL]LD[Orn]K([AEEA-AEEA-γGlu-Decanoyl(10-(4-HOOC-PhO))])AQ[Aib]EFI[dE][αMeY]LIK([AEEA-AEEA-γGlu-Decanoyl(10-(4-HOOC-PhO))])GGPSSGAPPPS-NH2 [Example 326] is strictly below 30 nM.
Given back: 1.0

Asked: hey, is cAMP EC50 (1.0% HSA) for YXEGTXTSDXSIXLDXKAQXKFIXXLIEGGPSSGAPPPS (Y-Aib-EGT-αMeF(2F)-TSD-2Nal-SI-αMeL-LD-Orn-K((2-[2-(2-Amino-ethoxy)-ethoxy]-acetyl)2-(γ-Glu)-(10-(4-carboxyphenoxy)decanoyl))AQ-Aib-K((2-[2-(2-Amino-ethoxy)-ethoxy]-acetyl)2-(γ-Glu)-(10-(4-carboxyphenoxy)decanoyl))FI-(D-Glu)-αMeY-LIEGGPSSGAPPPS-NH2) [Example 281] lower than 30 nM or not?
Given back: 1.0
